measured.target: full-length human CSNK1A1 (Homo sapiens, UniProt P48729)
Construct: N-terminal Glutathion-S-Transferase (GST) and full-length human CSNK1A1; purchased Life Technologies PV4174; host or cells: baculovirus infected insect cells
Sequence (P48729 whole entry): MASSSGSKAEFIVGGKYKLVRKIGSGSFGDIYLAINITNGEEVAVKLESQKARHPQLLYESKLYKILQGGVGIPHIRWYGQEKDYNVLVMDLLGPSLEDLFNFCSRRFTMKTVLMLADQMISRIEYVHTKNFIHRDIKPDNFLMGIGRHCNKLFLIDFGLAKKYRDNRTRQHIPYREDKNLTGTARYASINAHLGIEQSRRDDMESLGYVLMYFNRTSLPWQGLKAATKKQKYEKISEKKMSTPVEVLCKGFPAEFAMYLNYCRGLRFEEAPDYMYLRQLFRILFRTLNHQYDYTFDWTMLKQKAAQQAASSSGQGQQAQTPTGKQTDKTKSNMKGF
method.summary: CSNK1A1 High ATP Assay (ADP-Glo, 1 mM ATP);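 further: 30 min kinase reaction at 22 °C with 100 µM peptide substrate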
Type: biochemical
setup.conditions: Table 3, read-out: CSNK1A1 high ATP assay IC50 [mol/l] (median)
// IC50 lookup, one value per entry

molecule	IC50 [nM]
O=C(Nc1cc(-c2[nH]c3c(OC[C@@H]4COCCO4)cc(F)nc3c2-c2ccccn2)ccn1)C(CC(F)F)c1ccc(F)cc1 (single isomer, unassigned) [Example 58]	3.56
O=C(Nc1cc(-c2[nH]c3c(OC[C@@H]4COCCO4)cc(F)nc3c2-c2ccccn2)ccn1)C(CC(F)F)c1ccc(F)cc1 (mixture of isomers) [Example 57]	7.89
O=C(Nc1cc(-c2[nH]c3c(C4CCCO4)cc(F)nc3c2-c2ccccn2)ccn1)C(CC(F)F)c1ccc(F)cc1 (single isomer, unassigned) [Example 116]	13.2
O=C(Nc1cc(-c2[nH]c3c(OCC(F)(F)F)ncnc3c2-c2ccccn2)ccn1)C(CC(F)(F)F)c1ccc(F)cc1 (single isomer, unassigned) [Example 126]	20
O=C(Nc1cc(-c2[nH]c3cc(Cl)cnc3c2-c2ccccn2)ccn1)C(CC(F)F)c1ccc(F)cc1 (single isomer, unassigned) [Example 89]	89
COc1cnc2c(-c3ccccn3)c(-c3ccnc(NC(=O)C(CC(F)F)c4ccc(F)cc4)c3)[nH]c2c1 (single isomer, unassigned) [Example 82]	2.68
O=C(Nc1cc(-c2[nH]c3cncnc3c2-c2ccccn2)ccn1)C(CC(F)F)c1ccc(F)cc1 (single isomer, unassigned; (-)) [Example 14]	2140
CN1CCN(c2cc(F)nc3c(-c4ccccn4)c(-c4ccnc(NC(=O)C(CC(F)F)c5ccc(F)cc5)c4)[nH]c23)CC1 (racemic)	3.19
O=C(Nc1cc(-c2[nH]c3cccnc3c2-c2ccccc2)ccn1)C(CC(F)F)c1ccc(F)cc1 (single isomer, unassigned; (+)) [Example 24]	66.6
Cc1cc(F)nc2c(-c3ccccn3)c(-c3ccnc(NC(=O)C(CC(F)F)c4ccc(F)cc4)c3)[nH]c12 (racemic) [Example 36]	21.4
Cc1cc2[nH]c(-c3ccnc(NC(=O)C(CC(F)F)c4ccc(F)cc4)c3)c(-c3ccccn3)c2nc1F (single isomer, unassigned) [Example 34]	3.79
Cc1cc2[nH]c(-c3ccnc(NC(=O)C(CC(F)F)c4ccc(F)cc4)c3)c(-c3ccccn3)c2nc1F (single isomer, unassigned) [Example 35]	2.69
